Target: UniProt:P48048
Sequence (P48048 whole entry, species assumed): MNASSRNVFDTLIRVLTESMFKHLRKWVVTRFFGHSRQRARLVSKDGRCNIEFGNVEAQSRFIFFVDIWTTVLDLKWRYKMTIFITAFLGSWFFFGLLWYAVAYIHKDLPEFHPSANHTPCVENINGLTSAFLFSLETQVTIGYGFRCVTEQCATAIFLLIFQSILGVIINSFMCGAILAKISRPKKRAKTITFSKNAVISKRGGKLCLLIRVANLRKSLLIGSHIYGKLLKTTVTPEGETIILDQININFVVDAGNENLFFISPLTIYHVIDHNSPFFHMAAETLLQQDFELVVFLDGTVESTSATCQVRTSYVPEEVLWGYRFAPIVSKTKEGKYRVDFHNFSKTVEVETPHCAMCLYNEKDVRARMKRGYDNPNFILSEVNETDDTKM
Test: Electrophysiology Assay (whole cell voltage clamp, IonWorks Quattro)
Type: cell-based
Conditions: Chinese hamster ovary cells stably expressing Kir1.1; block during voltage step to 0 mV; read-out: Electrophysiology IC50
Could you mark each record true (1) if its IC50 falls strictly under 0.1 µM, and false (0) if it equals or exceeds it?

Use the examples below as a reference point.
INSERT INTO assay_data (compound, classlabel) VALUES
  ('COc1cc([C@H]2CN3CCN(C[C@H](O)c4ccc5c(c4C)COC5=O)C[C@@H]3CO2)ccc1C#N [Example 1]', 'false (0)'),
  ('COc1cc(C(O)CN2CCN3C[C@@H](c4ccc5c(c4C)COC5=O)OC[C@@H]3C2)cc(F)c1C#N (single isomer, unassigned) [Example 54]', 'false (0)'),
  ('Cc1c(CCN2CCN3C[C@@H](c4ccc5c(c4C)COC5=O)OC[C@@H]3C2)ccc2c1COC2=O [Example 57]', 'true (1)'),
  ('Cc1c([C@@H]2CN3CCN(CC(O)c4ccc5c(c4C4CC4)COC5=O)C[C@H]3CO2)ccc2c1COC2=O (single isomer, unassigned) [Example 50]', 'false (0)'),
  ('Cc1c([C@H]2CN3CCN(CCc4ccc5c(c4C)COC5=O)C[C@H]3CO2)ccc(F)c1C#N [Example 79]', 'true (1)');

Here's the next entry for you.
Hello, is IC50 of the following compound strictly smaller than 0.1 µM? Cc1c([C@H]2CN3CCN(CCc4ccc(-n5cnnn5)nc4)C[C@H]3CO2)ccc(F)c1C#N [Example 93] true (1)
